- Test target: bovine serum albumin (bovine) (UniProt P02769)
- Sequence (P02769 25-607 limits assumed): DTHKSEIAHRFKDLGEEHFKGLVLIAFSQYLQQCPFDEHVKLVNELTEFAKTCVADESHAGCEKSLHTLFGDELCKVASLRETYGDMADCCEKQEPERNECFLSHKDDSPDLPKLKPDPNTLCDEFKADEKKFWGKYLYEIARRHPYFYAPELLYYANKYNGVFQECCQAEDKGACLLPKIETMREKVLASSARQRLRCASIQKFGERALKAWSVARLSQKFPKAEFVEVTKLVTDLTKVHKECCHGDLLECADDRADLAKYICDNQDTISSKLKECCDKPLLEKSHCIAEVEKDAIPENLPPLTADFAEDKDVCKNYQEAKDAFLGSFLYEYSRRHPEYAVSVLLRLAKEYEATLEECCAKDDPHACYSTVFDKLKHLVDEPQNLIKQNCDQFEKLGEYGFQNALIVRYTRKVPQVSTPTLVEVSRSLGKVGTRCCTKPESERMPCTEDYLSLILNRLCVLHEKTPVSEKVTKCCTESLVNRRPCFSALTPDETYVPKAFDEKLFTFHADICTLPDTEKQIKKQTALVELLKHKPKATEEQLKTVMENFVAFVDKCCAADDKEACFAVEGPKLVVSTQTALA
- Procedure text: EIA, BSA control
We label by threshold. Values of Reactivity (OD 492 nm) strictly beneath 0.06 OD units are Yes. Values of 0.06 OD units and up are No.

{"columns": ["Binder", "Class name"],
 "data": [
  ["HCV 208A-422 (antibody, V domains shown) VH: DVQLQESGPGLVNPSQSLSLTCSVTGYSITSGYYWIWIQQSPGNKLEWMGYIKYDGGNNYSPSLKNRISIARDTSKNQCFLKLNSVTIEDTATYYCTRGSDSFDYWGQGTTLTVSS VL: DIVLTQSPASLAVSLGQRAIISCKASQSVSFAGTNLMHWYQQKPGQQPKLLIYRASNLETGVPTRFSGSGSRTDFTLNIHPVEEDDAATYYCQQSREYYTFGGGTKLEIKR", "No"],
  ["HCV 208B-822 (antibody, V domains shown) VH: QVQLKQSGPGLVQPSQSLSITCTVSGFSLITYGVHWVRQSPGKGLEWLGVIWGGGSTGYNAAFVSRLNITKDNSKSQVFFKMNSLQPDDTAIYYCARNGGATVFDYWGQGTTLTVSS VL: DIVMTQSPATLSVTPGDRVSLSCRASQTISDYLHWYQQKSHESPRLLIKYASQSISGIPSRFSGSGSGSHFTLSINSVEPEDVGVYYCQNGHSFPWTFGGGTKLEIKR", "Yes"],
  ["HCV 208B-517 (antibody, V domains shown) VH: QVQLKQSGPGLVQPSQSLSITCTVSGFSLITHGVHWVRQSPGKGLEWLGVIWSGGSTDYNAAFISRLSISKDTSKSQVFLKMSSLQADDTAIYYCARNGGATAFDYWGQGTTLTVSS VL: DIVMTQSPATLSVTPGDRVSLSCRASQSISDYLHWYQQKSHESPRLLIKYASQSISGIPSRFRGSGSGSHFTLSINSVEPEDVGVYYCQNGHSFPWTFGGGTKLEIKR", "No"],
  ["HCV 208B-327 (antibody, V domains shown) VH: EVQLVESGGGLVKPGGSLKLSCAASGFTFSDSYMYWVRQTPDQRLEWVATISDGGSYTFYPDSVKGRFTISRDNAQNNLYLQMSSLKSEDTAMYYCASPHAGYFGWFAYWGRGTLVTVSA VL: DIVMTQAAFSNPVTPGTSVSISCRSSKSLLHSNGITYLYWYLQKPGQSPQLLIYQMSKIASGVPDRFRSSGSGTDFTLRISRVEAADVGVYYCAQNLELPWTFGGGTKLEIKR", "Yes"],
  ["HCV 208B-826 (antibody, V domains shown) VH: DVQLVESGGGLVQAGGSRKLSCAASGFPFSSFGMHWVRQAPEKGLEWVASISSRTSKIYYADNLKGRFTISRDNPKNTLFLQMTSLGSEDTAMYYCVRSVFGNSYWFFDVWGAGTTVTVSS VL: DIVLTQSPATLSVTPGDRVSLSCRASQRIYNYLHWYQQKSHESPRLLTKYASQSISGIPSRFSGSGSGTDFILTINSVETEDFGMYFCQQSNSWPLTFGAGTKLELRR", "No"],
  ["HCV 208A-126 (antibody, V domains shown) VH: QLQQSGPVLVKPGASVMISCKTSGYTFTENAMHWVKQSHGKSLEWIGGVNPNNGDTIFNQKFKGKATLTVDKSSNTAFTELRSLPSEESTVYYCVRRGLDFFDYWGQGTSVTVSS VL: DIVLTQSPASLAVSLGQRATISCRASQSVSTSRYSYMHWYQQKPGQPPKLLIKYASNLESGVPARFSGSGSGTDFTLNIHPVAEEDTAAYYCQHSWEFPFTFGSGTKLEIKR", "No"]
]}
